test system: Streptococcus pyogenes; experiment: In Vitro antibacterial ativity against Streptococcus pyogenes EES61 (Ery-S strain); assay type: functional
ENDPOINT LABEL: MIC

Take a look at these entries with their results.
SMILES STR	TEST TARGET	MIC
CC[C@H]1OC(=O)[C@@](C)(F)C(=O)[C@H](C)[C@@H](O[C@@H]2O[C@H](C)C[C@H](N(C)C)[C@H]2O)[C@@](C)(OCC#CCc2ccc(-c3csnn3)cc2)C[C@@H](C)C(=O)[C@H](C)[C@H]2NC(=O)O[C@@]21C	Streptococcus pyogenes	0.03 µg/mL
CC[C@H]1OC(=O)[C@H](C)C(=O)[C@H](C)[C@@H](O[C@@H]2O[C@H](C)C[C@H](N(C)C)[C@H]2O)[C@@](C)(OCC#CCc2ccc(-c3cnccn3)cc2)C[C@@H](C)C(=O)[C@H](C)[C@H]2NC(=O)O[C@@]21C	Streptococcus pyogenes	< 0.004 µg/mL
CC[C@H]1OC(=O)[C@H](C)C(=O)[C@H](C)[C@@H](O[C@@H]2O[C@H](C)C[C@H](N(C)C)[C@H]2O)[C@@](C)(OCC#CCc2ccc(-c3csnn3)cc2)C[C@@H](C)C(=O)[C@H](C)[C@H]2NC(=O)O[C@@]21C	Streptococcus pyogenes	0.03 µg/mL
CC[C@H]1OC(=O)[C@H](C)C(=O)[C@H](C)[C@@H](O[C@@H]2O[C@H](C)C[C@H](N(C)C)[C@H]2O)[C@@](C)(OCC#CCc2cnc3ccccc3c2)C[C@@H](C)C(=O)[C@H](C)[C@H]2NC(=O)O[C@@]21C	Streptococcus pyogenes	0.015 µg/mL
CC[C@H]1OC(=O)[C@H](C)C(=O)[C@H](C)[C@@H](O[C@@H]2O[C@H](C)C[C@H](N(C)C)[C@H]2O)[C@@](C)(OCC#CCc2ccccc2)C[C@@H](C)C(=O)[C@H](C)[C@H]2NC(=O)O[C@@]21C	Streptococcus pyogenes	0.06 µg/mL
CC[C@H]1OC(=O)[C@H](C)C(=O)[C@H](C)[C@@H](O[C@@H]2O[C@H](C)C[C@H](N(C)C)[C@H]2O)[C@](C)(OC)C[C@@H](C)C(=O)[C@H](C)[C@H]2N(CCCCn3cnc(-c4cccnc4)c3)C(=O)O[C@]12C	Streptococcus pyogenes	0.004 µg/mL
CC[C@H]1OC(=O)[C@H](C)[C@@H](O[C@H]2C[C@@](C)(OC)[C@@H](O)[C@H](C)O2)[C@H](C)[C@@H](O[C@@H]2O[C@H](C)C[C@H](N(C)C)[C@H]2O)[C@](C)(O)C[C@@H](C)C(=O)[C@H](C)[C@@H](O)[C@]1(C)O	Streptococcus pyogenes	0.015 µg/mL

We next turn to a different molecule, shown below.
Could you share which MIC value was measured for "CC[C@H]1OC(=O)[C@H](C)C(=O)[C@H](C)[C@@H](O[C@@H]2O[C@H](C)C[C@H](N(C)C)[C@H]2O)[C@@](C)(OCC#CCc2ccc(-c3cccnc3)cc2)C[C@@H](C)C(=O)[C@H](C)[C@H]2NC(=O)O[C@@]21C" ?
< 0.004 µg/mL

----------
MIC values, listed per item
tested on: Streptococcus pyogenes; test: In Vitro antibacterial ativity against Streptococcus pyogenes PIU2548 (mefA strain); type: functional
API: value field is a number in µg/mL; no unit string.

SMILES STR	ENDPOINT LABEL	READING
CC[C@H]1OC(=O)[C@H](C)C(=O)[C@H](C)[C@@H](O[C@@H]2O[C@H](C)C[C@H](N(C)C)[C@H]2O)[C@@](C)(OCC#CCc2ccc(-c3csnn3)cc2)C[C@@H](C)C(=O)[C@H](C)[C@H]2NC(=O)O[C@@]21C	MIC	0.125
CC[C@H]1OC(=O)[C@@](C)(F)C(=O)[C@H](C)[C@@H](O[C@@H]2O[C@H](C)C[C@H](N(C)C)[C@H]2O)[C@@](C)(OCC#CCc2ccc(-c3csnn3)cc2)C[C@@H](C)C(=O)[C@H](C)[C@H]2NC(=O)O[C@@]21C	MIC	0.25
CC[C@H]1OC(=O)[C@H](C)[C@@H](O[C@H]2C[C@@](C)(OC)[C@@H](O)[C@H](C)O2)[C@H](C)[C@@H](O[C@@H]2O[C@H](C)C[C@H](N(C)C)[C@H]2O)[C@](C)(O)C[C@@H](C)C(=O)[C@H](C)[C@@H](O)[C@]1(C)O	MIC	8

Dear colleague, I am looking for the recorded MIC of the following compound: "CC[C@H]1OC(=O)[C@H](C)C(=O)[C@H](C)[C@@H](O[C@@H]2O[C@H](C)C[C@H](N(C)C)[C@H]2O)[C@@](C)(OCC#CCc2ccc(-c3cccnc3)cc2)C[C@@H](C)C(=O)[C@H](C)[C@H]2NC(=O)O[C@@]21C"
0.125

----------
Reported MIC is given for each of the following molecules.
test system: Streptococcus pyogenes; assay: In Vitro antibacterial ativity against Streptococcus pyogenes PIU2548 (mefA strain); assay type: functional
A bare number is not enough; add the unit after it.

Would you kindly share the measured MIC for "CC[C@H]1OC(=O)[C@H](C)C(=O)[C@H](C)[C@@H](O[C@@H]2O[C@H](C)C[C@H](N(C)C)[C@H]2O)[C@@](C)(OCC#CCc2ccc(-c3cnccn3)cc2)C[C@@H](C)C(=O)[C@H](C)[C@H]2NC(=O)O[C@@]21C" ?
0.015 µg/mL

Next entry: "CC[C@H]1OC(=O)[C@H](C)C(=O)[C@H](C)[C@@H](O[C@@H]2O[C@H](C)C[C@H](N(C)C)[C@H]2O)[C@@](C)(OCC#CCc2ccccc2)C[C@@H](C)C(=O)[C@H](C)[C@H]2NC(=O)O[C@@]21C"
0.25 µg/mL

How about this molecule: "CC[C@H]1OC(=O)[C@H](C)C(=O)[C@H](C)[C@@H](O[C@@H]2O[C@H](C)C[C@H](N(C)C)[C@H]2O)[C@](C)(OC)C[C@@H](C)C(=O)[C@H](C)[C@H]2N(CCCCn3cnc(-c4cccnc4)c3)C(=O)O[C@]12C"
2 µg/mL

Note, next up: "CC[C@H]1OC(=O)[C@H](C)C(=O)[C@H](C)[C@@H](O[C@@H]2O[C@H](C)C[C@H](N(C)C)[C@H]2O)[C@@](C)(OCC#CCc2cnc3ccccc3c2)C[C@@H](C)C(=O)[C@H](C)[C@H]2NC(=O)O[C@@]21C"
0.25 µg/mL

----------
system: Streptococcus pneumoniae; assay: In Vitro antibacterial activity against Streptococcus pneumoniae ATCC 6303 (Ery-S strain); assay type: functional
ENDPOINT LABEL: MIC (mg/L)
Give the value in mg/L but do not write mg/L after it.

Previously resolved entries follow.
COMPOUND	ENDPOINT LABEL	READING
CC[C@H]1OC(=O)[C@H](C)C(=O)[C@H](C)[C@@H](O[C@@H]2O[C@H](C)C[C@H](N(C)C)[C@H]2O)[C@@](C)(OCC#CCc2ccccc2)C[C@@H](C)C(=O)[C@H](C)[C@H]2NC(=O)O[C@@]21C	MIC	0.03
CC[C@H]1OC(=O)[C@@](C)(F)C(=O)[C@H](C)[C@@H](O[C@@H]2O[C@H](C)C[C@H](N(C)C)[C@H]2O)[C@@](C)(OCC#CCc2ccc(-c3csnn3)cc2)C[C@@H](C)C(=O)[C@H](C)[C@H]2NC(=O)O[C@@]21C	MIC	0.015

Okay, next one:
Returns the measured MIC for the input compound. Input: CC[C@H]1OC(=O)[C@H](C)[C@@H](O[C@H]2C[C@@](C)(OC)[C@@H](O)[C@H](C)O2)[C@H](C)[C@@H](O[C@@H]2O[C@H](C)C[C@H](N(C)C)[C@H]2O)[C@](C)(O)C[C@@H](C)C(=O)[C@H](C)[C@@H](O)[C@]1(C)O [ERYTHROMYCIN]
0.015

----------
tested on: Streptococcus pneumoniae; assay: In Vitro antibacterial activity against Streptococcus pneumoniae ATCC 6303 (Ery-S strain); type: functional
In this section we review reported MIC values for a set of molecules.

SMILES STR	TEST TARGET	READING
CC[C@H]1OC(=O)[C@H](C)C(=O)[C@H](C)[C@@H](O[C@@H]2O[C@H](C)C[C@H](N(C)C)[C@H]2O)[C@@](C)(OCC#CCc2cnc3ccccc3c2)C[C@@H](C)C(=O)[C@H](C)[C@H]2NC(=O)O[C@@]21C	Streptococcus pneumoniae	< 4 ng/mL

What does the record list as MIC for "CC[C@H]1OC(=O)[C@H](C)C(=O)[C@H](C)[C@@H](O[C@@H]2O[C@H](C)C[C@H](N(C)C)[C@H]2O)[C@@](C)(OCC#CCc2ccc(-c3cnccn3)cc2)C[C@@H](C)C(=O)[C@H](C)[C@H]2NC(=O)O[C@@]21C" ?
< 4 ng/mL

What about "CC[C@H]1OC(=O)[C@H](C)C(=O)[C@H](C)[C@@H](O[C@@H]2O[C@H](C)C[C@H](N(C)C)[C@H]2O)[C@](C)(OC)C[C@@H](C)C(=O)[C@H](C)[C@H]2N(CCCCn3cnc(-c4cccnc4)c3)C(=O)O[C@]12C" ?
4 ng/mL

What about "CC[C@H]1OC(=O)[C@H](C)C(=O)[C@H](C)[C@@H](O[C@@H]2O[C@H](C)C[C@H](N(C)C)[C@H]2O)[C@@](C)(OCC#CCc2ccc(-c3cccnc3)cc2)C[C@@H](C)C(=O)[C@H](C)[C@H]2NC(=O)O[C@@]21C" ?
< 4 ng/mL
